Documented IC50 across a set of compounds
Molecular target: Prostaglandin G/H synthase 1 (Homo sapiens, UniProt P23219)
Sequence (P23219 whole entry): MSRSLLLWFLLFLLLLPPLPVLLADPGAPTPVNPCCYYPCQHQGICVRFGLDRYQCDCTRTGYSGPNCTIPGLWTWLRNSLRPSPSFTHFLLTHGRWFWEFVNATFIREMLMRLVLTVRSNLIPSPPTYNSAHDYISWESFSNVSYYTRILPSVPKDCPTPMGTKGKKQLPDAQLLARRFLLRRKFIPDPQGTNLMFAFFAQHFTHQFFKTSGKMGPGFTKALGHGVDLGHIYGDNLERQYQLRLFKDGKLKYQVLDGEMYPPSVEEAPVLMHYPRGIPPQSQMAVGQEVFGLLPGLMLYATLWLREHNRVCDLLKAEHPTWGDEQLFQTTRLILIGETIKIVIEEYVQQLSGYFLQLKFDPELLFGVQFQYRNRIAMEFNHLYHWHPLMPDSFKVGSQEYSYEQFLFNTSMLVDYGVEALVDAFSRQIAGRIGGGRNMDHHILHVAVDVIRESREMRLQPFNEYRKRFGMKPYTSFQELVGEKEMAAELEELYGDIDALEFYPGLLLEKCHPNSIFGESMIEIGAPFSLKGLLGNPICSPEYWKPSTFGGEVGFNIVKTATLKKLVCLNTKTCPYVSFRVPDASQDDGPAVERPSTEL
Return type: number; implicit unit µM.

Request: IC50, test system Prostaglandin G/H synthase 1 (Homo sapiens, UniProt P23219), entry C=C(C)C(CC=C(C)C)Cc1c(O)cc(OC)c2c1O[C@H](c1ccc(O)cc1O)CC2=O (some centres undefined)
0.6

Request body: readout IC50, system Prostaglandin G/H synthase 1 (Homo sapiens, UniProt P23219), query C=CCc1ccc(OC(C)=O)c(OC)c1 [EUGENYL ACETATE] . Return the value.
3

Continuing:
# value lookup — system Prostaglandin G/H synthase 1 (Homo sapiens, UniProt P23219), readout IC50, item C[C@@H]1CC(=O)[C@]2(CO)[C@H](CCC[C@]23CO3)[C@@]12C[C@@H](c1ccoc1)OC2=O
40

// fetch Prostaglandin G/H synthase 1 (Homo sapiens, UniProt P23219) IC50 for COc1cc2ccc(=O)oc2c(O)c1O
524

Short answer please: IC50, Prostaglandin G/H synthase 1 (Homo sapiens, UniProt P23219), entry COc1c(O)cc([C@@H]2Oc3cc(O)cc(O)c3C[C@H]2O)cc1O
12

GET /values?readout=IC50&system=Prostaglandin G/H synthase 1 (Homo sapiens, UniProt P23219)&item= CC(C)=CCc1c(-c2ccc(O)cc2O)oc2c(CC=C(C)C)c(O)cc(O)c2c1=O
62

Lookup: IC50 / Prostaglandin G/H synthase 1 (Homo sapiens, UniProt P23219) / C=C[C@@H](O)C#CC#C[C@@H](O)/C=C\CCCCCCC
66

Can you look up IC50 on Prostaglandin G/H synthase 1 (Homo sapiens, UniProt P23219) for C=C1CC/C=C(\C)C(=O)[C@H](OC(C)=O)[C@@H]2[C@@H]1CC2(C)C ?
14

---

Reported values: pIC50 for Prostaglandin G/H synthase 1 (Homo sapiens, UniProt P23219), one per item.
In simple prose, pIC50 is minus the logarithm base ten of a concentration in moles per litre.

Before answering, review these 3 worked examples.
Value lookup for pIC50; key = CC(=O)[C@H]1CC[C@]2(C)CC[C@@H]([C@](C)(O)CO)C[C@]12O
4.37

Which pIC50 value belongs to COc1ccc2cc1Oc1ccc(cc1)C[C@H]1c3cc(c(OC)cc3CCN1C)Oc1c(O)c(OC)cc3c1[C@H](C2)N(C)CC3 ?
3.89

Look up pIC50 for this compound: C=C1C(=O)C(O)=C[C@@H]2[C@]3(C)CC[C@](C)(C(=O)CO)C[C@@H]3CC[C@]12C [AKENDO 3]
4.47

***
Field request: pIC50 | item: OC[C@H]1O[C@@H](OCCc2ccc(O)cc2)[C@H](O)[C@@H](O)[C@@H]1O [SALIDROSIDE]
4.14

Suppose we examine the compound O=C(O)[C@H]1O[C@@H](Oc2c(-c3cc(O)c(O)c(O)c3)oc3cc(O)cc(O)c3c2=O)[C@H](O)[C@@H](O)[C@@H]1O ; what pIC50 value has been reported?
5.00

Form field: reported pIC50 of COc1c(O)cc([C@H]2Oc3cc(O)cc(O)c3C[C@H]2O)cc1O
5.48

# pIC50 lookup, item C[C@@H]1OC(O[C@@H]2[C@@H](O)[C@H](OCCc3ccc(O)c(O)c3)O[C@H](CO[C@@H]3OC[C@](O)(CO)[C@H]3O)[C@H]2OC(=O)/C=C/c2ccc(O)c(O)c2)[C@H](O[C@@H]2OC[C@H](O)[C@H](O)[C@H]2O)[C@H](O)[C@H]1O (some centres not stated) [BALLOTETROSIDE]
3.00

The measurements presented in this section are drawn from ChEMBL document CHEMBL1151260.
